- experimental-system: DNA topoisomerase 1 (Homo sapiens)
- Sequence (whole entry): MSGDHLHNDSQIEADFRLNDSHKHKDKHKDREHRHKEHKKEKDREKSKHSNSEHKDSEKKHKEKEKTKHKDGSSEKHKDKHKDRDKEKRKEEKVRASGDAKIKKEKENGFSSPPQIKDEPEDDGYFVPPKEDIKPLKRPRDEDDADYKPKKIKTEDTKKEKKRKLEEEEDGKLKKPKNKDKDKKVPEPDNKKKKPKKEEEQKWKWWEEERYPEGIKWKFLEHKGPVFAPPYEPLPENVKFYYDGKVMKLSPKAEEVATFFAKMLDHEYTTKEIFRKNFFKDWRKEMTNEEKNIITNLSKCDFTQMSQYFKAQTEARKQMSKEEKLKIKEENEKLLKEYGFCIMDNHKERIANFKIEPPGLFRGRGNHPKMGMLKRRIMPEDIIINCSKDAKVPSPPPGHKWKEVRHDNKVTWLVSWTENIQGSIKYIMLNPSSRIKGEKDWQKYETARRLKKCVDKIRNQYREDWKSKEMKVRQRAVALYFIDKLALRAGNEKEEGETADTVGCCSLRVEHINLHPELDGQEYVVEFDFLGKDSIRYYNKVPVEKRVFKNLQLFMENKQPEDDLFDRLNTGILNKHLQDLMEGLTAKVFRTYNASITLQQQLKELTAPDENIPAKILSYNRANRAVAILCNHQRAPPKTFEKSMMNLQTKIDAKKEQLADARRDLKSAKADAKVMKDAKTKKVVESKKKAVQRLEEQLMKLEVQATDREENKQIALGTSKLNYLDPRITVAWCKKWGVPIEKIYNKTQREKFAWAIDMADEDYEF
- assay-comment: Inhibition of recombinant human topoisomerase-1 assessed as reduction in relaxation of supercoiled pBR322 DNA substrate at 100 uM after 30 mins by ethidium bromide staining based agarose gel electrophoresis relative to control
Is inhibition at least 30%? Then Satisfied. If not, Not satisfied.

item_smiles=C=C1OC(=O)C=C1Cc1ccc(NC(=O)/C=C/c2ccccc2F)cc1 assigned_class=Satisfied

Tell me whether inhibition is at least 30% here: "C=C1OC(=O)C=C1Cc1ccc(NC(=O)Cc2ccccc2F)cc1"
Satisfied

Tell me whether inhibition is at least 30% here: "C=C1OC(=O)C=C1Cc1ccc(NC(=O)Cc2cccc(C(F)(F)F)c2)cc1"
Satisfied

Tell me whether inhibition is at least 30% here: "C=C1OC(=O)C=C1Cc1ccc(NC(=O)Cc2ccccc2C(F)(F)F)cc1"
Satisfied

Tell me whether inhibition is at least 30% here: "C=C1OC(=O)C=C1Cc1ccc(NC(=O)Cc2ccc(C(F)(F)F)cc2)cc1"
Satisfied

Tell me whether inhibition is at least 30% here: "C=C1OC(=O)C=C1Cc1ccc(NC(=O)Cc2ccccc2Cl)cc1"
Not satisfied

Tell me whether inhibition is at least 30% here: "Cc1ccc(CC(=O)Nc2ccc(CC3=CC(=O)OC3)cc2)cc1"
Not satisfied

Tell me whether inhibition is at least 30% here: "C=C1OC(=O)C=C1Cc1ccc(NC(=O)/C=C/c2ccccc2)cc1"
Satisfied

Tell me whether inhibition is at least 30% here: "O=C(Cc1ccccc1C(F)(F)F)Nc1ccc(CC2=CC(=O)OC2)cc1"
Not satisfied

Tell me whether inhibition is at least 30% here: "C=C1OC(=O)C=C1Cc1ccc(NC(=O)Cc2ccccc2)cc1"
Not satisfied

----------
- Test system: HeLa
- assay-comment: Cytotoxicity against human HeLa cells assessed as reduction in cell viability after 48 hrs by MTT assay
- Assay type: functional, cell-based
Please assign F whenever IC50 is at or above 40 µM, and T whenever it is below.

Worked examples, 2 molecules total:
item_smiles=C=C1OC(=O)C=C1Cc1ccc(NC(=O)c2ccccc2)cc1 assigned_class=F
item_smiles=C=C1OC(=O)C=C1Cc1ccc(NC(=O)Cc2ccc(Cl)cc2)cc1 assigned_class=T

I'd appreciate it if you could check whether "C=C1OC(=O)C=C1Cc1ccc(NC(=O)Cc2ccccc2)cc1" has IC50 smaller than 40 µM.
F

I'd appreciate it if you could check whether "C=C1OC(=O)C=C1Cc1ccc(NC(=O)Cc2ccccc2C(F)(F)F)cc1" has IC50 smaller than 40 µM.
T

I'd appreciate it if you could check whether "C=C1OC(=O)C=C1Cc1ccc(NC(=O)/C=C/c2cccc(F)c2)cc1" has IC50 smaller than 40 µM.
T

I'd appreciate it if you could check whether "C=C1OC(=O)C=C1Cc1ccc(NC(=O)/C=C/c2ccccc2)cc1" has IC50 smaller than 40 µM.
T

I'd appreciate it if you could check whether "C=C1OC(=O)C=C1Cc1ccc(NC(=O)Cc2cccc(Cl)c2)cc1" has IC50 smaller than 40 µM.
F

I'd appreciate it if you could check whether "O=C(Cc1ccccc1C(F)(F)F)Nc1ccc(CC2=CC(=O)OC2)cc1" has IC50 smaller than 40 µM.
F

----------
- Test system: A549
- assay-comment: Cytotoxicity against human A549 cells assessed as reduction in cell viability after 48 hrs by MTT assay
- Type: functional, cell-based
- condition-context: A549, 48 h
Listed below: pIC50 values for each entry.
API: returns pIC50 as number; meaning -log10 of concentration in mol/L.

Some molecules with known pIC50 results, for comparison:
item_smiles=C=C1OC(=O)C=C1Cc1ccc(NC(=O)Cc2cccc(Cl)c2)cc1 reported_metric=pIC50 reported_measurement=4.39
item_smiles=C=C1OC(=O)C=C1Cc1ccc(NC(=O)Cc2ccc(F)cc2)cc1 reported_metric=pIC50 reported_measurement=4.64
item_smiles=C=C1OC(=O)C=C1Cc1ccc(NC(=O)Cc2ccccc2)cc1 reported_metric=pIC50 reported_measurement=4.41
item_smiles=O=C(Cc1ccc(C(F)(F)F)cc1)Nc1ccc(CC2=CC(=O)OC2)cc1 reported_metric=pIC50 reported_measurement=4.34
item_smiles=Cc1ccc(CC(=O)Nc2ccc(CC3=CC(=O)OC3)cc2)cc1 reported_metric=pIC50 reported_measurement=4.38

Which pIC50 value is on record for "O=C(/C=C/c1ccc(F)cc1)Nc1ccc(CC2=CC(=O)OC2)cc1" ?
4.38

Which pIC50 value is on record for "C=C1OC(=O)C=C1Cc1ccc(NC(=O)Cc2cccc(C(F)(F)F)c2)cc1" ?
5.17

Which pIC50 value is on record for "C=C1OC(=O)C=C1Cc1ccc(NC(=O)c2ccccc2)cc1" ?
4.30

Which pIC50 value is on record for "C=C1OC(=O)C=C1Cc1ccc(NC(=O)/C=C/c2cccc(F)c2)cc1" ?
4.45

Which pIC50 value is on record for "C=C1OC(=O)C=C1Cc1ccc(NC(=O)Cc2ccccc2F)cc1" ?
4.50

----------
- Tested on: A549
- assay-comment: Cytotoxicity against human A549 cells assessed as reduction in cell viability after 48 hrs by MTT assay
- Assay type: functional, cell-based
- condition-context: A549, 48 h
reported-metric: IC50 (µM)
Numeric answer only, unit µM assumed.

Any idea what IC50 came out for "O=C(/C=C/c1ccccc1F)Nc1ccc(CC2=CC(=O)OC2)cc1" on A549?
40

Any idea what IC50 came out for "CC[C@@]1(O)C(=O)OCc2c1cc1n(c2=O)Cc2cc3ccccc3nc2-1" on A549?
0.24

Any idea what IC50 came out for "C=C1OC(=O)C=C1Cc1ccc(NC(=O)Cc2ccc(C(F)(F)F)cc2)cc1" on A549?
42.9

Any idea what IC50 came out for "O=C(Cc1ccccc1C(F)(F)F)Nc1ccc(CC2=CC(=O)OC2)cc1" on A549?
48.9

Any idea what IC50 came out for "C=C1OC(=O)C=C1Cc1ccc(NC(=O)/C=C/c2ccccc2F)cc1" on A549?
7.41

----------
Listed below: IC50 values for each entry.
- System: A549
- assay-comment: Cytotoxicity against human A549 cells assessed as reduction in cell viability after 48 hrs by MTT assay
- Assay type: functional, cell-based
- condition-context: A549, 48 h
Numeric answer only, unit µM assumed.

Some molecules with known IC50 results, for comparison:
item_smiles=C=C1OC(=O)C=C1Cc1ccc(NC(=O)Cc2ccccc2C(F)(F)F)cc1 experimental_system=A549 reported_metric=IC50 reported_measurement=37.5
item_smiles=C=C1OC(=O)C=C1Cc1ccc(NC(=O)Cc2ccc(C)cc2)cc1 experimental_system=A549 reported_metric=IC50 reported_measurement=7.79

Which IC50 value is on record for "C=C1OC(=O)C=C1Cc1ccc(NC(=O)Cc2ccc(Cl)cc2)cc1" ?
37.6

Which IC50 value is on record for "C=C1OC(=O)C=C1Cc1ccc(NC(=O)/C=C/c2ccc(F)cc2)cc1" ?
3.46

Which IC50 value is on record for "C=C1OC(=O)C=C1Cc1ccc(NC(=O)/C=C/c2ccccc2)cc1" ?
14.8

Which IC50 value is on record for "C=C1OC(=O)C=C1Cc1ccc(NC(=O)Cc2ccccc2Cl)cc1" ?
48.8

----------
- experimental-system: DNA topoisomerase 1 (Homo sapiens)
- Sequence (whole entry): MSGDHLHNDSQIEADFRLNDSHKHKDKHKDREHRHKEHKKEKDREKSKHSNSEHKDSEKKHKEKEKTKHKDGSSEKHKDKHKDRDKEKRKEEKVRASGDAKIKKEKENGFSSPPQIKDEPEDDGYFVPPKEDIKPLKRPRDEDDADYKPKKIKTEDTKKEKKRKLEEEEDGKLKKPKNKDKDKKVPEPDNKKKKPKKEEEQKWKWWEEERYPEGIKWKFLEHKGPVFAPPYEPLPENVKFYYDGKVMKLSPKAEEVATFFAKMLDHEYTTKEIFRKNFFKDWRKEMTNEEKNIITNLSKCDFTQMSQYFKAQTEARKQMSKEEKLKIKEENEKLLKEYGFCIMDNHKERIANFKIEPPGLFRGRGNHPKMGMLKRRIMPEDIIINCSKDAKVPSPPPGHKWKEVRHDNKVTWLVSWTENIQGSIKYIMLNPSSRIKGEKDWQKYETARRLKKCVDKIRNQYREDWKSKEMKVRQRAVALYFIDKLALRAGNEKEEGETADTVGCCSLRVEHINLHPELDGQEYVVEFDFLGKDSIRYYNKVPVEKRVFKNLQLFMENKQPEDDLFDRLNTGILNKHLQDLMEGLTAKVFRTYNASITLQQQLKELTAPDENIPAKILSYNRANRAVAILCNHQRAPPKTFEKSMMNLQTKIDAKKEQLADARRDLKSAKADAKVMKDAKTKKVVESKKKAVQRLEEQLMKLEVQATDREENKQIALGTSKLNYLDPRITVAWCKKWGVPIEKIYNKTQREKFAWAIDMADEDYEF
- assay-comment: Inhibition of recombinant human topoisomerase-1 assessed as reduction in relaxation of supercoiled pBR322 DNA substrate at 100 uM after 30 mins by ethidium bromide staining based agarose gel electrophoresis relative to control
Is inhibition at least 20%? Then Fulfilled. If not, Not fulfilled.

item_smiles=C=C1OC(=O)C=C1Cc1ccc(NC(=O)c2ccccc2)cc1 assigned_class=Fulfilled
item_smiles=O=C(/C=C/c1ccccc1F)Nc1ccc(CC2=CC(=O)OC2)cc1 assigned_class="Not fulfilled"
item_smiles=O=C(/C=C/c1ccc(F)cc1)Nc1ccc(CC2=CC(=O)OC2)cc1 assigned_class="Not fulfilled"

Please find the next compound below.
Tell me whether inhibition is at least 20% here: "C=C1OC(=O)C=C1Cc1ccc(NC(=O)/C=C/c2cccc(F)c2)cc1"
Fulfilled
